So I've got a bunch of compounds here, and I need their relative viability values.
System: SW684
Protocol: relative viability vs DMSO control (72 h) (fraction); higher = more viable cells
Particulars: 0.00051 µM
Output spec: single numeric token, no unit.

Request: Param readout= relative viability; system= SW684; entry= "O=C1CCc2c(Oc3ccc4c(c3)[C@@H]3[C@H](O4)[C@H]3c3nc4cc(C(F)(F)F)ccc4[nH]3)ccnc2N1" ; returns value.
Response: 1.2

Request: Param readout= relative viability; system= SW684; entry= "CN(C)C/C=C/C(=O)Nc1cc2c(Nc3ccc(F)c(Cl)c3)ncnc2cc1O[C@H]1CCOC1" ; returns value.
Response: 1.18

Request: Param readout= relative viability; system= SW684; entry= "CN(C)C(=O)c1cc2cnc(Nc3ccc(N4CCNCC4)cn3)nc2n1C1CCCC1" ; returns value.
Response: 1.16

Request: Param readout= relative viability; system= SW684; entry= O=S(=O)(c1cccc2c(O)nccc12)N1CCCNCC1 [Hydroxyfasudil] ; returns value.
Response: 1.21

---

So I've got a bunch of compounds here, and I need their relative viability values.
System: KHOS-NP
Protocol: relative viability vs DMSO control (72 h) (fraction); higher = more viable cells
Particulars: 0.00152 µM
Output spec: single numeric token, no unit.

Request: Param readout= relative viability; system= KHOS-NP; entry= "CN(C)CCCOc1ccc(-c2ccc3ncc4c(c3c2)n(C2CCOCC2)c(=O)n4C)cn1" ; returns value.
Response: 1.09

Request: Param readout= relative viability; system= KHOS-NP; entry= Cc1[nH]c(/C=C2\C(=O)Nc3ccccc32)c(C)c1CCC(=O)O [Orantinib] ; returns value.
Response: 1.12

Request: Param readout= relative viability; system= KHOS-NP; entry= "CC(=O)c1c(C)c2cnc(Nc3ccc(N4CCNCC4)cn3)nc2n(C2CCCC2)c1=O" ; returns value.
Response: 1.12

Request: Param readout= relative viability; system= KHOS-NP; entry= "C[C@@H]1CN(C(=O)c2ccc(NC(=O)c3cc(O[C@H](C)c4c(Cl)ccc(F)c4Cl)c(N)nn3)cc2)C[C@H](C)N1" ; returns value.
Response: 1.03

Request: Param readout= relative viability; system= KHOS-NP; entry= "C=CC(=O)N1CCC(CNc2ncnc(N)c2-c2ccc(Oc3ccccc3)cc2)CC1" ; returns value.
Response: 1.13

---

Tested on: SYO-1
Protocol: relative viability vs DMSO control (72 h) (fraction); higher = more viable cells
Particulars: 0.3704 µM
Parameter: relative viability
Output spec: single numeric token, no unit.

Request: Looking for the measured relative viability of Cc1cc(F)c(C(=O)Nc2cccc(-c3nncn3C(C)C)n2)cc1-n1cnc(C2CC2)c1 [Selonsertib] , can you help?
Response: 0.921

Request: Looking for the measured relative viability of CCS(=O)(=O)N1CC(CC#N)(n2cc(-c3ncnc4[nH]ccc34)cn2)C1 [Baricitinib] , can you help?
Response: 0.985

Request: Looking for the measured relative viability of CN(C)C/C=C/C(=O)Nc1cc2c(Nc3ccc(F)c(Cl)c3)ncnc2cc1O[C@H]1CCOC1 [Afatinib] , can you help?
Response: 0.838

Request: Looking for the measured relative viability of Cc1[nH]c(/C=C2\C(=O)Nc3ccccc32)c(C)c1CCC(=O)O [Orantinib] , can you help?
Response: 0.979

Request: Looking for the measured relative viability of CCOc1cc2ncc(C#N)c(Nc3ccc(OCc4ccccn4)c(Cl)c3)c2cc1NC(=O)/C=C/CN(C)C [Neratinib] , can you help?
Response: 0.716

Request: Looking for the measured relative viability of CN(C)C(=O)c1cc2cnc(Nc3ccc(N4CCNCC4)cn3)nc2n1C1CCCC1 [Ribociclib] , can you help?
Response: 0.772

Request: Looking for the measured relative viability of CNC(=O)c1c(C)oc2cc(Oc3ncnc4cc(OC)c(OC)cc34)ccc12 [Fruquintinib] , can you help?
Response: 0.651
